# System: Human immunodeficiency virus 1
# Assay Info: Viral spread inhibitory concentration against HIV-1 strain NL4-3 in MT-4 human T-lymphoid cells
# Format: functional
# Particulars: Human immunodeficiency virus 1, T-lymphoid; read-out: CIC95
Answer each item with its documented IC95.
Numbers only, in nM.

- O=C(N[C@H]1c2ccccc2OC[C@H]1O)[C@H](Cc1cccnc1)C[C@H](O)CN1CCN(Cc2ccn(-c3cccc(F)c3)c2)C[C@H]1C(=O)NCC(F)(F)F: 15
- O=C(N[C@H]1c2ccccc2OC[C@H]1O)[C@H](Cc1cccnc1)C[C@H](O)CN1CCN(Cc2ccn(-c3cccc(C(F)(F)F)c3)c2)C[C@H]1C(=O)NCC(F)(F)F: 15
- Cc1ccc(-n2ccc(CN3CCN(C[C@@H](O)C[C@@H](Cc4cccnc4)C(=O)N[C@H]4c5ccccc5OC[C@H]4O)[C@H](C(=O)NCC(F)(F)F)C3)c2)cc1: 15
- CC(C)(C)NC(=O)[C@@H]1CN(Cc2cccnc2)CCN1C[C@@H](O)C[C@@H](Cc1ccccc1)C(=O)N[C@H]1c2ccccc2C[C@H]1O.O: 50

Let us examine a further case.
Query: What does the data say about its IC95? Entry: `O=C(N[C@H]1c2ccccc2OC[C@H]1O)[C@H](Cc1cccnc1)C[C@H](O)CN1CCN(Cc2ccn(-c3ccccc3F)c2)C[C@H]1C(=O)NCC(F)(F)F`
Result: 15

Ref: ChEMBL document CHEMBL1146635
